In this section, each of the compounds is paired with its reported EC50.
- assay procedure: Inhibition of HIV1 gp41-induced cell-cell fusion between viral envelope expressing human HL2/3 cells to CD4/CCR5 receptor expressing TZM-bl cells after 6 to 8 hrs by luciferase assay
property: EC50

- compound: "CC1(C)CC[C@]2(C(=O)O)CC[C@]3(C)C(=CC[C@@H]4[C@@]5(C)CC[C@H](O)C(C)(C)[C@@H]5CC[C@]43C)[C@@H]2C1 [Oleanolic acid (OA)(Compound 1)]"
  property: "EC50"
  reported value: "> 100 µM"
- compound: "C=C(C)[C@@H]1CC[C@]2(C(=O)O)CC[C@]3(C)[C@H](CC[C@@H]4[C@@]5(C)CC[C@H](O)C(C)(C)[C@@H]5CC[C@]43C)[C@@H]12"
  property: "EC50"
  reported value: "> 100 µM"
- compound: "C[C@H]1[C@H](C)CC[C@]2(C(=O)O)CC[C@]3(C)C(=CC[C@@H]4[C@@]5(C)CC[C@H](O)C(C)(C)[C@@H]5CC[C@]43C)[C@H]12 [3beta-hydroxyurs-12-en-28-oic acid]"
  property: "EC50"
  reported value: "> 100 µM"
